Data provenance: paper PMC11352099

Catalogue of recovery at 2 h, 10 µM values
- test details: in vitro
- applied conditions: human, Caco-2, Recovery (%) B-A
Give the number; % is assumed, so skip it.

Field: example entries. Status: answers known.
{"columns": ["molecule", "value"],
 "data": [
  ["Cc1cc(=O)[nH]c2cc(NC(=O)[C@H]3O[C@@H](n4cc(C#Cc5cncnc5)c5c(N)ncnc54)[C@H](O)[C@@H]3O)ccc12 [18n]", 110],
  ["Nc1ncnc2c1ncn2[C@@H]1O[C@H](C(=O)Nc2ccc3c(C(F)(F)F)cc(=O)oc3c2)[C@@H](O)[C@H]1O [12m]", 130],
  ["Cc1cc(=O)oc2cc(NC(=O)[C@H]3O[C@@H](n4cnc5c(N)ncnc54)[C@H](O)[C@@H]3O)ccc12 [12l]", 83],
  ["Cc1cc(=O)[nH]c2cc(NC(=O)[C@H]3O[C@@H](n4cnc5c(N)ncnc54)[C@H](O)[C@@H]3O)ccc12 [12n]", 87]
]}

Please turn your attention to the following entry.
Q. Returns the measured recovery at 2 h, 10 µM for the input molecule. Input: Cc1cc(=O)[nH]c2cc(N(C)C(=O)[C@H]3O[C@@H](n4cc(C#Cc5cncnc5)c5c(N)ncnc54)[C@H](O)[C@@H]3O)ccc12 [18q]
A. 101

* * *

- subject of test: UniProt:P0DTD1
- test details: biochemical
- Type: biochemical
- applied conditions: Table 1 and text; N.I., no inhibition
experimental endpoint: IC50

{"columns": ["compound", "subject of test", "value"],
 "data": [
  ["Nc1ncnc2c1ncn2[C@@H]1O[C@H](CNC(=O)c2ccc3c(c2)OCCO3)[C@@H](O)[C@H]1O [21k]", "UniProt:P0DTD1", "N.I."],
  ["COC(=O)c1cc(NC(=O)[C@H]2O[C@@H](n3cnc4c(N)ncnc43)[C@H](O)[C@@H]2O)ccc1F [12f]", "UniProt:P0DTD1", "N.I."],
  ["Cc1ccc(NC(=O)[C@H]2O[C@@H](n3cnc4c(N)ncnc43)[C@H](O)[C@@H]2O)cc1O [12e]", "UniProt:P0DTD1", "N.I."]
]}

* * *

- test details: Caco-2 permeability assay
- applied conditions: human, Caco-2, Recovery (%) B-A, Table S2, B to A transport
experimental endpoint: recovery at 2 h, 10 µM (%)
Give the number; % is assumed, so skip it.

Q. Returns the measured recovery at 2 h, 10 µM for the input compound. Input: C[C@H]1O[C@@H](O[C@H]2[C@@H](O)C[C@H](O[C@H]3[C@@H](O)C[C@H](O[C@H]4CC[C@@]5(C)[C@H](CC[C@@H]6[C@@H]5C[C@@H](O)[C@]5(C)[C@@H](C7=CC(=O)OC7)CC[C@]65O)C4)O[C@@H]3C)O[C@@H]2C)C[C@H](O)[C@@H]1O [Digoxin, reference compound]
A. 77

* * *

Catalogue of CC50 at 3 days values
- test details: in vitro
- applied conditions: human

{"columns": ["molecule", "CC50 at 3 days"],
 "data": [
  ["Cc1cc(=O)oc2cc(NC(=O)[C@H]3O[C@@H](n4cc(C#Cc5cncnc5)c5c(N)ncnc54)[C@H](O)[C@@H]3O)ccc12 [18l]", "> 50 µM"]
]}

Q. Returns the measured CC50 at 3 days for the input molecule. Input: Cc1cc(=O)[nH]c2cc(NC(=O)[C@H]3O[C@@H](n4cc(C#Cc5cncnc5)c5c(N)ncnc54)[C@H](O)[C@@H]3O)ccc12 [18n]
A. > 50 µM

* * *

- test details: in vitro
- applied conditions: mouse, plasma
experimental endpoint: half-life at 2 h, 10 µM (h)
Give the number; h is assumed, so skip it.

Q. Returns the measured half-life at 2 h, 10 µM for the input molecule. Input: Cc1cc(=O)[nH]c2cc(NC(=O)[C@H]3O[C@@H](n4cc(C#Cc5cncnc5)c5c(N)ncnc54)[C@H](O)[C@@H]3O)ccc12 [18n]
A. 1.57

* * *

- test details: in vitro
- applied conditions: human, Caco-2, pH 7.4
experimental endpoint: Papp A→B at 2 h, 10 µM (×10⁻⁶ cm/s)
Give the number; ×10⁻⁶ cm/s is assumed, so skip it.

Field: example entries. Status: answers known.
{"columns": ["molecule", "Papp A→B at 2 h, 10 µM, ×10⁻⁶ cm/s"],
 "data": [
  ["Cc1cc(=O)[nH]c2cc(N(C)C(=O)[C@H]3O[C@@H](n4cc(C#Cc5cncnc5)c5c(N)ncnc54)[C@H](O)[C@@H]3O)ccc12 [18q]", 2],
  ["Nc1ncnc2c1ncn2[C@@H]1O[C@H](C(=O)Nc2ccc3c(C(F)(F)F)cc(=O)oc3c2)[C@@H](O)[C@H]1O [12m]", 8],
  ["Cc1cc(=O)[nH]c2cc(NC(=O)[C@H]3O[C@@H](n4cc(C#Cc5cncnc5)c5c(N)ncnc54)[C@H](O)[C@@H]3O)ccc12 [18n]", 11.3],
  ["Cc1cc(=O)oc2cc(NC(=O)[C@H]3O[C@@H](n4cnc5c(N)ncnc54)[C@H](O)[C@@H]3O)ccc12 [12l]", 3.1]
]}

Please turn your attention to the following entry.
Q. Returns the measured Papp A→B at 2 h, 10 µM for the input molecule. Input: Cc1cc(=O)[nH]c2cc(NC(=O)[C@H]3O[C@@H](n4cnc5c(N)ncnc54)[C@H](O)[C@@H]3O)ccc12 [12n]
A. 4.4

* * *

- subject of test: SARS-CoV-2 nsp14 MTase (Severe acute respiratory syndrome coronavirus 2, UniProt P0DTD1)
- test details: biochemical
- Type: biochemical
- applied conditions: Table 1 and text; N.I., no inhibition
experimental endpoint: IC50

Field: example entries. Status: answers known.
{"columns": ["compound", "IC50"],
 "data": [
  ["Nc1ncnc2c1ncn2[C@@H]1O[C@H](C(=O)Nc2ccc(-c3cn[nH]c3)cc2)[C@@H](O)[C@H]1O [12i]", "N.I."],
  ["Nc1ncnc2c1ncn2[C@@H]1O[C@H](C(=O)Nc2ccc(-c3ccsc3)cc2)[C@@H](O)[C@H]1O [12h]", "N.I."],
  ["Cc1noc(C)c1-c1ccc(NC(=O)[C@H]2O[C@@H](n3cnc4c(N)ncnc43)[C@H](O)[C@@H]2O)cc1 [12j]", "N.I."],
  ["NC(=O)c1ccc(NC(=O)[C@H]2O[C@@H](n3cnc4c(N)ncnc43)[C@H](O)[C@@H]2O)cc1 [12b]", "N.I."],
  ["COc1cccc(NC(=O)[C@H]2O[C@@H](n3cnc4c(N)ncnc43)[C@H](O)[C@@H]2O)c1 [12c]", "N.I."],
  ["Nc1ncnc2c1ncn2[C@@H]1O[C@H](C(=O)Nc2ccc(-c3ccoc3)cc2)[C@@H](O)[C@H]1O [12g]", "N.I."]
]}

Q. Returns the measured IC50 for the input compound. Input: COC(=O)c1ccc(C(=O)NC[C@H]2O[C@@H](n3cnc4c(N)ncnc43)[C@H](O)[C@@H]2O)cc1 [21a]
A. N.I.

* * *

- applied conditions: microsomes, 0.75 h, 10 µM, pH 7.4
Catalogue of Microsomal stability % of the parent compound after 45 min, Mouse values
Give the number; % is assumed, so skip it.

Field: example entries. Status: answers known.
{"columns": ["compound", "value"],
 "data": [
  ["Cc1cc(=O)[nH]c2cc(NC(=O)[C@H]3O[C@@H](n4cnc5c(N)ncnc54)[C@H](O)[C@@H]3O)ccc12 [12n]", 90],
  ["Cc1cc(=O)oc2cc(NC(=O)[C@H]3O[C@@H](n4cc(C#Cc5cncnc5)c5c(N)ncnc54)[C@H](O)[C@@H]3O)ccc12 [18l]", 84],
  ["Nc1ncnc2c1ncn2[C@@H]1O[C@H](C(=O)Nc2ccc3c(C(F)(F)F)cc(=O)oc3c2)[C@@H](O)[C@H]1O [12m]", 93],
  ["Cc1cc(=O)[nH]c2cc(N(C)C(=O)[C@H]3O[C@@H](n4cc(C#Cc5cncnc5)c5c(N)ncnc54)[C@H](O)[C@@H]3O)ccc12 [18q]", 117],
  ["Cc1cc(=O)[nH]c2cc(NC(=O)[C@H]3O[C@@H](n4cc(C#Cc5cncnc5)c5c(N)ncnc54)[C@H](O)[C@@H]3O)ccc12 [18n]", 85]
]}

Q. Returns the measured Microsomal stability % of the parent compound after 45 min, Mouse for the input compound. Input: Cc1cc(=O)oc2cc(NC(=O)[C@H]3O[C@@H](n4cnc5c(N)ncnc54)[C@H](O)[C@@H]3O)ccc12 [12l]
A. 95

* * *

- test details: Caco-2 permeability assay
- applied conditions: human, Caco-2, Recovery (%) A-B, Table S2, A to B transport
- Procedure: 3.5. Caco-2 permeability assay Transepithelial bi-directional transport of compounds (10 µM, pH 7.4/7.4) was tested on 21-day differentiated Caco-2 monolayers. Briefly, the cells were seeded at a density of 67 ,500 cells per 96-well plate insert (Millicell®, Merck KGaA, Darmstadt, Germany). […] After that, samples were collected from both apical inserts and basolateral wells and analyzed using LC -MS/MS (SCIEX Triple Quad™ 7500 QTRAP® Ready). […]
experimental endpoint: recovery at 2 h, 10 µM (%)
Give the number; % is assumed, so skip it.

Q. Returns the measured recovery at 2 h, 10 µM for the input molecule. Input: C[C@H]1O[C@@H](O[C@H]2[C@@H](O)C[C@H](O[C@H]3[C@@H](O)C[C@H](O[C@H]4CC[C@@]5(C)[C@H](CC[C@@H]6[C@@H]5C[C@@H](O)[C@]5(C)[C@@H](C7=CC(=O)OC7)CC[C@]65O)C4)O[C@@H]3C)O[C@@H]2C)C[C@H](O)[C@@H]1O [Digoxin, reference compound]
A. 131
